Where do the numbers come from? From paper PMC5981863.

target: ADC-7/R340A mutant; test: Competition kinetics with nitrocefin
PROPERTY: pKi
// pKi here means minus log10 of the molar concentration (mol/L)

Query: I am curious: what pKi value has been reported for O=S(=O)(NCB(O)O)c1ccc(-c2nn[nH]n2)cc1C(F)(F)F ?
Result: 8.08
